Tested on: NCI-H522
method.notes: NCI tumour cell line growth inhibition, 48 h
Activity calls are given as the source filed them. No stated cut-off is given here; in the data, active = GI50 up to about 1.1 µM and inactive = higher.
Pick one: active, inactive

Query block: Answer briefly: the call reported for CCCCNCC(=O)O[C@]1(CC)C(=O)OCc2c1cc1n(c2=O)Cc2cc3ccccc3nc2-1 in this assay.
Result block: active

Query block: Hello, I am checking results. What call was entered for O=C1C(Br)=C(c2ccccc2)O/C1=C/C(=O)c1ccc(Br)cc1 ?
Result block: inactive

Query block: Could you check what this test reported for O=[N+]([O-])C(=C(Nc1cccc2cccnc12)Nc1cccc2cccnc12)C(Cl)=C(Cl)Cl ?
Result block: inactive

Query block: Tell me the recorded outcome of this test for CC(=O)c1cc2c(s1)C(=O)c1ccsc1C2=O .
Result block: active

Query block: Test call, this molecule: O=[N+]([O-])c1ccc2c(c1)Cc1cc(/N=C/c3ccc4c(c3)OCO4)ccc1-2
Result block: inactive

Query block: Outcome? C/C(=N\N=C(\N)OB(F)F)c1ccccn1
Result block: inactive

Query block: # outcome recorded in this test, key = CCOC(=O)CCC1(C(=O)O[C@@H]2C[C@H](C)CC[C@H]2C(C)C)CCCCC1=O (stereo partly drawn)
Result block: inactive

Query block: Short answer needed: outcome of this test for COc1nc(C#CCC(C)O)nc(OC)n1 (stereo not drawn) ?
Result block: inactive

---

Exercise: for every item that follows, state its recorded GI50.
System: NCI-H23
method.notes: NCI tumour cell line growth inhibition, 48 h
Active and inactive are the calls of the source. Cut-off read from the data, not from the text of the source: active = GI50 up to about 1.1 µM and inactive = higher. Residues, ends and D or L forms follow the SMILES beside them. *: point of attachment. Boc = CC(C)(C)OC(=O)*

Query block: Please report the measured GI50 for Cc1ccc(N2C(=O)C3CSCN3C2=O)cc1 (stereo unspecified)
Result block: > 100 µM (inactive)

Query block: Output GI50 of COc1ccc(C2SCC(=O)N2c2ccc(-c3ccc(-n4c(-c5ccccc5)nc5ccccc5c4=O)cc3)cc2)cc1 (stereo unspecified)
Result block: 68.9 µM (inactive)

Query block: Note GI50 for the molecule shown: O=C1C(Cl)C(c2ccccc2)N1n1cnc2ccccc2c1=O (stereo unspecified)
Result block: > 100 µM (inactive)

Query block: Write down GI50 measured for item CSC12c3cc(C)n(-c4ccc(I)cc4)c3CC(C)(C)CN1C(=O)C2Oc1ccccc1 (stereo unspecified)
Result block: > 100 µM (inactive)

Query block: For the molecule COC(=O)C1=NC(=S)NC(c2ccccc2)C1c1nc2ccccc2s1 (stereo unspecified) , report GI50.
Result block: > 100 µM (inactive)

Query block: // Input: COc1cc(COC(=O)N(C)[C@@H](Cc2ccccc2)C(=O)O)c([N+](=O)[O-])cc1OC . Output its GI50 only.
Result block: > 100 µM (inactive)

Query block: Entry CC12CC1C(c1cccc([N+](=O)[O-])c1)(c1cccc([N+](=O)[O-])c1)N=N2 (stereo unspecified) needs its GI50 filled in; supply it.
Result block: 19.1 µM (inactive)

Query block: Check the records and state GI50 for Cc1c(C(=O)OCc2ccccc2)[n+]([O-])c2cc(F)c(F)cc2[n+]1[O-]
Result block: 2.37 µM (inactive)

Query block: Determine from records and report GI50 for Cc1cc2c(=O)c3ccccc3oc2c(C#N)c1C
Result block: > 100 µM (inactive)

Query block: Quick one: give measured GI50 for CC1=C2C(=O)c3ccccc3C(=O)[C@H]2C[C@@H](N2CCCCCC2=O)O1
Result block: 14.9 µM (inactive)

Query block: Please list GI50 recorded for the molecule COc1ccc2c(c1)CCC1C3(CCCC21C)OCCO3 (stereo unspecified)
Result block: 15.6 µM (inactive)

Query block: Return GI50 for the following molecule: CC(C)(C)OC(=O)NC(Cc1ccc(O)cc1)C(=O)NC(CCCCN)C(=O)O (stereo not drawn) (Boc-Tyr-Lys-OH; configuration not given here)
Result block: 18.5 µM (inactive)

Query block: Provide only the value of recorded GI50 for Cn1nnnc1SC(F)(F)c1nc2ccccc2o1
Result block: > 100 µM (inactive)

Query block: Name the recorded GI50 of the item CC1CC(C2=CC=CCS2)=Nc2ccccc2S1 (stereo unspecified) in your answer.
Result block: > 100 µM (inactive)

Query block: Report GI50 for COC(=O)c1cc(NC(=O)Cc2c[nH]c3ccccc23)cn1C
Result block: > 100 µM (inactive)

Query block: Return GI50 (reported value) for this molecule: COc1ccc2c3c1OC1C(=O)C=CC4(CC2)N(C)CCC314 (stereo unspecified)
Result block: 14 µM (inactive)

Query block: Note down GI50 recorded for O=C(O)COc1cccc2ccccc(=O)c12
Result block: > 100 µM (inactive)

Query block: Give GI50 for CC(=O)OCC(OC(C)=O)C(OC(C)=O)C(OC(C)=O)C(=O)CNn1c(-c2ccccc2Cl)nc2ccccc2c1=O (stereo unspecified)
Result block: > 100 µM (inactive)

Query block: Hello, please tell me recorded GI50 for this one: COc1ccc2c(c1)Oc1cc(O)ccc1[C@H]2c1ccccc1C(=O)NC(C)c1ccccc1 (stereo partly specified)
Result block: 15.5 µM (inactive)

Query block: Look up and report measured GI50 for this entry: Cc1ccc(-n2nc(C(OC3OC(CO)C(O)C(O)C3O)C(O)CO)c3nc4cc(C)c(C)cc4nc32)cc1 (stereo unspecified)
Result block: > 100 µM (inactive)

Query block: # return recorded GI50 for entry CCOC(=O)c1nc2c(Cl)c3ncccc3cc2[nH]c1=O
Result block: 29.3 µM (inactive)
